System: MCF7 breast
assayComment: NCI-60 one-dose screen, 48 h
measurementContext: 10 µM unless noted
About 83,000 compounds went through this panel and 20% of them were active in at least one assay; those are over-represented in the sample as a whole. Calls of active or inactive are those of the source. The calls were made as follows: active = growth percent below 10; inactive = the rest.
Labels: Y = active, N = inactive

• COc1cc(C2C(C#N)=C(N)Oc3cc4c(cc32)OCO4)cc2c1OCO2 (stereo unspecified) = N
• CN(C)c1nc(-c2cccs2)n2nc(-c3ccc(Cl)cc3)cc2n1 = N
• C=CCN1C(=O)/C(=c2\sc3n(c2=O)C2C(NN=3)N(CC)C(=O)N2CC)c2ccccc21 (stereo unspecified) = N
• O=C(/C=C/c1ccco1)c1ccccc1O = N
• Cc1ccccc1NC(=O)c1sc2nc3c(cc2c1N)C(=O)CCC3 = N
• ClC1=NC(Cl)C(Cl)=N/C1=N\c1ncn[nH]1 (stereo unspecified) = Y
• COc1cc(CN(c2ccc(C)cc2)C2OC(=O)c3ccccc32)cc(OC)c1OC (stereo unspecified) = N
• C#Cc1cccc(Nc2nc3cc([N+](=O)[O-])ccc3nc2Nc2ccc(O)cc2)c1 = Y
• CC(C)(CCc1ccccn1)C(=O)CCCc1ccccn1 = N
• COc1ccc(/C=N/NC(N)=S)c(OC)n1 = N
• c1cc(C2CCCCC2)ccc1-c1cnc2nonc2n1 = Y
• CN(C)c1ccc(C2(Cl)c3ccccc3N(C)c3ccccc32)cc1 = N
• O=C(/C=C/c1ccccc1Br)c1cccc(OCCCCOc2cccc(C(=O)/C=C/c3ccccc3Br)c2)c1 = N
• CN1C(=O)N(C)C2C1NN=c1s/c(=C\c3ccc(C(F)(F)F)cc3)c(=O)n12 (stereo unspecified) = N
• CN(C)CCCn1c(=O)c2cc([N+](=O)[O-])ccc2c2cnc3[nH]ccc3c21 = Y
• C[N+](C)(C)CC(=O)N/N=C\c1ccco1 = N

###

Test system: SK-MEL-2 melanoma
assayComment: NCI-60 one-dose screen, 48 h
measurementContext: 10 µM unless noted
This is part of a sample that, as a whole, favours compounds with a hit. Of some 83,000 tested, about 20% had one in any assay. Activity calls are given as the source filed them. Rule for the calls: active = growth percent below 10; inactive = the rest.
Labels: TRUE = active, FALSE = inactive

• ClC1=NC(Cl)C(Cl)=N/C1=N\c1ncn[nH]1 (stereo unspecified) = TRUE
• C=C1C(=O)O[C@H]2[C@H]1CC/C(COC(=O)N[C@@H](Cc1c[nH]c3ccccc13)C(=O)OC)=C\CC[C@@]1(C)O[C@@H]21 = FALSE
• COc1cccc(/C=N\Nc2ccc([N+](=O)[O-])cn2)c1O = FALSE
• COc1ccc(-c2nc3ccccc3n3cccc23)cc1 = FALSE
• Cc1cc(-c2ccc(N=Nc3c(S(=O)(=O)O)cc4cc(S(=O)(=O)O)cc(O)c4c3O)c(C)c2)ccc1N=Nc1c(S(=O)(=O)O)cc2cc(S(=O)(=O)O)cc(O)c2c1O = FALSE
• Oc1c(C(Nc2cccc3ccccc23)c2ccccc2)ccc2cccnc12 (stereo unspecified) = TRUE
• Fc1ccc(-c2nc(-c3ccc(-c4nc5ccc(F)cc5[nH]4)cc3)no2)cc1 = FALSE
• O=C(O)C(CCc1ccccc1)NCc1ccccc1 (stereo unspecified) = FALSE
• Oc1c(C(Nc2ccccc2Br)c2ccccc2)ccc2cccnc12 (stereo unspecified) = FALSE
• C=CCN1C(=O)/C(=c2\sc3n(c2=O)C2C(NN=3)N(CC)C(=O)N2CC)c2ccccc21 (stereo unspecified) = FALSE
• CCOc1cc(/C=N\NC(=O)C[N+](C)(C)C)ccc1O = FALSE
• CCc1c(C)c2ccc(O)c(-c3cc(-c4ccccc4)c(C#N)c(=O)[nH]3)c2oc1=O = FALSE
• C=C[C@H]1CCC/C=C/[C@@H]2C[C@H](O)C[C@H]2[C@H](O)/C=C/C(=O)O1 = TRUE
• CC(C)(c1ccccc1)c1cc(O)c(C(C)(C)c2ccccc2)cc1O = FALSE
• Cn1cnc([N+](=O)[O-])c1S(=O)(=O)Oc1cccc2ccccc12 = FALSE
• CCOC(=O)Cn1c(-c2nonc2NC(=O)c2ccccc2F)nc2ccccc21 = FALSE
• CC(=O)Cc1ccccn1 = FALSE
• COc1cc2c(cc1OC)-c1cc(OC)c(OC)cc1C(CN(C)C)C2 (stereo unspecified) = FALSE
• O=S(=O)(Cc1ccc(Cl)cc1Cl)c1ccc(Cl)cc1 = FALSE
• COc1ccc(Oc2nc(Nc3ccc(N4CCOCC4)cc3)ncc2NC(=O)Nc2cccc(OC)c2)cc1 = FALSE
• Cc1cc([N+](=O)[O-])c(C)cc1N = FALSE
• O=C(N/N=C/c1ccc([N+](=O)[O-])cc1)c1ccccc1Nc1ccnc(C(F)(F)F)c1 = FALSE
• O=C(/C=C/c1ccco1)c1ccccc1O = FALSE
• COc1cccc(NC(=O)OC(C)C)c1 = FALSE
• CN1C(=O)N(C)C2C1NN=c1s/c(=C\c3ccc(Br)cc3)c(=O)n12 (stereo unspecified) = FALSE
• CC(=O)O[C@H]1CC[C@]2(C)[C@H]3CC=C4[C@@H]5CC(C)(C)CC[C@]5(C(=O)OCC(COC(=O)C(Cl)Cl)(COC(=O)C(Cl)Cl)NC(=O)C(Cl)Cl)CC[C@@]4(C)[C@]3(C)CC[C@H]2C1(C)C = FALSE
• COc1ccc(C2c3cccn3-c3ccccc3N2C(C)=O)cc1 (stereo unspecified) = FALSE
• Cc1c(C(N)=O)sc2ncn(CC(=O)NN=C3CCCCC3)c(=O)c12 = TRUE
• CN1CCCN(CCNc2nccc(-c3c(-c4cccc(O)c4)nc4sccn34)n2)S1(=O)=O = FALSE
• O=C(/C=C/c1ccc(F)cc1)N1CCN(C(=O)/C=C/c2ccc(C(F)(F)F)cc2)CC1 = FALSE
• NS(=O)(=O)c1ccc(CCn2c(SCC(=O)N/N=C/c3ccccc3O)nc3ccccc3c2=O)cc1 = FALSE
